Target: T1, Human VSIG4-S-Fc (human)
T1 construct: short isoform ECD fused to human Fc1; also called hVSIG4-S
T1 sequence (chain, as listed by the source limits assumed): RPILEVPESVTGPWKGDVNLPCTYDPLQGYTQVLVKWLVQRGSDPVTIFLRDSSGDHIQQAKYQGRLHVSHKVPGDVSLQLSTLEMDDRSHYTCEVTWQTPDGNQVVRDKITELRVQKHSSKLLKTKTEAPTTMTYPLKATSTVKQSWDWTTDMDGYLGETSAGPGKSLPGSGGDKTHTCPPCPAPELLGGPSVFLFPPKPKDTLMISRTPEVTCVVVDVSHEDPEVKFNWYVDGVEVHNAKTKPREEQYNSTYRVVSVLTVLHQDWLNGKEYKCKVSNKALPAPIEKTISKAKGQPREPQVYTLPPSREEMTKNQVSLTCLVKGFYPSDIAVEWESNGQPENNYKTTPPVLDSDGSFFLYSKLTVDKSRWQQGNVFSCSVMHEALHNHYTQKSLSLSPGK
Experiment: ELISA, IgG 50 nM on coated antigen;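 note: Mouse-human chimeric IgG4 antibodies incubated 1 h on plate-coated VSIG4 proteins, bound IgG detected with HRP-labelled anti-human IgG, irrelevant antibody and protein as specificity controls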
MEASURED_PARAMETER: ELISA OD450 (OD450)
Report the value in OD450 with no unit label.

ELISA OD450 measured on 12A08 mouse/human chimeric IgG4 (S228P) kappa (antibody, V domains shown) VH: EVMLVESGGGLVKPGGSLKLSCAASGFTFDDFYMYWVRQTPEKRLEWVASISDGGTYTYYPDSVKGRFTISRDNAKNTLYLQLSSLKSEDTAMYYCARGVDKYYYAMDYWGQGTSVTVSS VL: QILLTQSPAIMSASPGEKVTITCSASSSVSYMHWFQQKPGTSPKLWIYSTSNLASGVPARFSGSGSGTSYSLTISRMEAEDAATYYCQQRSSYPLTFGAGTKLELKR = 3.37

Summary for this binder, 14C05 mouse/human chimeric IgG4 (S228P) kappa (antibody, V domains shown) VH: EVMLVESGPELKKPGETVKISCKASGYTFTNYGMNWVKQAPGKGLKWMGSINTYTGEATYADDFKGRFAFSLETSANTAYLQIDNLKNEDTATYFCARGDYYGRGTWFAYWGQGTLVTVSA VL: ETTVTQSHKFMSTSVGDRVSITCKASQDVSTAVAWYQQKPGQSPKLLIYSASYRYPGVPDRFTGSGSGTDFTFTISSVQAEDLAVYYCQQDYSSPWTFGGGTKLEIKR : ELISA OD450 is 4.36
